molecular target: UniProt:Q99572; test: Yo-Pro-1 uptake assay (Yo-Pro-1 Assay) in HEK-293 cells transiently transfected with P2X7R; details: HEK-293 cells transiently transfected with P2X7R; 30 μM bzATP as stimulus; readings 1 hour after stimulation; estimated from dose-response curves
Sequence (Q99572 whole entry): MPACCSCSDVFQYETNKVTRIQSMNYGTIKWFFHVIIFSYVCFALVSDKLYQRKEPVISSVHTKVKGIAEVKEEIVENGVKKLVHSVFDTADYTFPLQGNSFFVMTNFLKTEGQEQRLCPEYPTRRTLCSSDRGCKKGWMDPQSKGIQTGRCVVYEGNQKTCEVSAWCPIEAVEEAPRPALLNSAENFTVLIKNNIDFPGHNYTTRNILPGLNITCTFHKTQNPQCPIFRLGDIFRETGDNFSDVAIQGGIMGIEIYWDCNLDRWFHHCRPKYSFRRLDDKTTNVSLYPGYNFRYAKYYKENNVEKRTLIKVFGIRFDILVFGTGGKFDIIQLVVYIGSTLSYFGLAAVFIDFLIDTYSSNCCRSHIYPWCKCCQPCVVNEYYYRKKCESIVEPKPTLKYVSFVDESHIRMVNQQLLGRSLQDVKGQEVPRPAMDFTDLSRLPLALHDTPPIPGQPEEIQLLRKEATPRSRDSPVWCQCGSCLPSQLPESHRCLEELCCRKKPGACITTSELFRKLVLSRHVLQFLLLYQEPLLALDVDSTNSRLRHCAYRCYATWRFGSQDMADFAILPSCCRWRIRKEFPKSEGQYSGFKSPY
pIC50: −log10 of the molar value.
Reported metric: pIC50

Answered examples (3):
- CC1CCCCN1c1ccc(S(=O)(=O)N2CCCC(NC(=O)CCc3ccccc3)C2)cc1 (centres unmarked): 7.00
- CC(C)S(=O)(=O)c1ccc(N2CCCC(NC(=O)CCc3ccccc3)C2)cc1 (centres unmarked): 5.22
- O=C(CCc1ccccc1)NC1CCCN(S(=O)(=O)Cc2ccc(Br)cc2)C1 (centres unmarked): 5.68

a. O=S(=O)(c1ccccc1)C1CN(S(=O)(=O)c2ccc(N3CCOCC3)cc2)C1
b. O=C(CCc1ccccc1)NC1CCCN(S(=O)(=O)c2ccc(N3CCC(F)(F)CC3)cc2)C1 (centres unmarked)
Compare pIC50: is it lower for a or for b ? Please reply using the label of the selected record.
a
(a: 5.00, b: 5.42)

* * *

biological target: Human P2X1 receptor (P2X1R) (Homo sapiens, UniProt P51575); construct: expressed in transfected cells; host or cells: HEK-293; test: Receptor-mediated calcium entrance assay (Calcium Assay), P2X1R transfected HEK-293 cells; assay type: cell-based; conditions: HEK293, compound at 5 μM, ATP 20 μM stimulus, read-out: Percentage of activity remains in the presence of the compound at 5 μM, P2X1R (Calcium Assay)
Sequence (P51575 whole entry): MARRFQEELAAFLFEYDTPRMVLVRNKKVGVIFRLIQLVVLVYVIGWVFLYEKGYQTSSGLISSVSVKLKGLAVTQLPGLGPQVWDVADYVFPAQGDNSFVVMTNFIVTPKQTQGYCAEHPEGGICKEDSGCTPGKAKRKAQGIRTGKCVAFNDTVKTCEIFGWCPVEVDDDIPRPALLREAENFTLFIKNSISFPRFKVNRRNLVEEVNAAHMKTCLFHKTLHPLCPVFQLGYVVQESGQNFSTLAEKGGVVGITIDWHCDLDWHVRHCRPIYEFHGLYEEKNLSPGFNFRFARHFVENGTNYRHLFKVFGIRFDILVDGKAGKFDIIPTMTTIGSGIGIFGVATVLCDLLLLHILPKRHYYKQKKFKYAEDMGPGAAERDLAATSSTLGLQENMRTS
Reported metric: remaining activity at 5 µM (%)

- O=C1CCC(N2Cc3c(NC(=O)CCc4ccccc4)cccc3C2=O)C(=O)N1 (centres unmarked) [#16]: 51.5
- CC1CCCCN1c1ccc(S(=O)(=O)N2CCCC(NC(=O)CCc3ccccc3)C2)cc1 (centres unmarked) [#47]: 50.1
- COCCOc1ccc(S(=O)(=O)N2CCCC(NC(=O)CCc3ccccc3)C2)cc1 (centres unmarked) [#17]: 60.9
- CC(C)(C)OC(=O)N1CCN(c2ccc(S(=O)(=O)N3CCCC(C(=O)NCCc4ccccc4)C3)cc2)CC1 (centres unmarked) [#36]: 49
- CC(C)(C)OC(=O)N1CCN(c2ccc(S(=O)(=O)N3CCC(C(=O)NCCc4ccccc4)CC3)cc2)CC1 [#22]: 59.2

* * *

biological target: Human P2X4 receptor (P2X4R) (Homo sapiens, UniProt Q99571); construct: expressed in transfected cells; host or cells: HEK-293; assay: Receptor-mediated calcium entrance assay (Calcium Assay), P2X4R transfected HEK-293 cells; format: cell-based; settings: HEK293, compound at 5 μM, 1 mM ATP stimulus, read-out: Percentage of activity remains in the presence of the compound at 5 μM, P2X4R (Calcium Assay)
Sequence (Q99571 whole entry): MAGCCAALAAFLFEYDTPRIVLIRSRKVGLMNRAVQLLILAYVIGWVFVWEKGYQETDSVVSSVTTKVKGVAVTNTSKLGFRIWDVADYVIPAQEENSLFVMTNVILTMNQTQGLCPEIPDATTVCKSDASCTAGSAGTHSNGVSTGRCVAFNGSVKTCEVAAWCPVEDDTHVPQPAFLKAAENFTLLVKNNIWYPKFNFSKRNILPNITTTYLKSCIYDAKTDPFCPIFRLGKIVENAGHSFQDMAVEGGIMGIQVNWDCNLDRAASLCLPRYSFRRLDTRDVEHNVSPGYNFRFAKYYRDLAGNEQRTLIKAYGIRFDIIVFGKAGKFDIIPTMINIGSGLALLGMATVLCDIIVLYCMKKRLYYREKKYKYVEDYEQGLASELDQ
Reported metric: remaining activity at 5 µM (%)

- CC(C)(C)OC(=O)N1CCN(c2ccc(S(=O)(=O)N3CCCC(C(=O)NCCc4ccccc4)C3)cc2)CC1 (stereo not drawn): 72.2
- O=C(CCc1ccccc1)NC1CCCN(S(=O)(=O)c2ccc(OCc3ccccc3)cc2)C1 (stereo not drawn): 56.9
- NC(=O)c1cc(Br)cc(N2CCOCC2)c1: 85.4

1. O=C(CCc1ccccc1)NC1CCCN(c2ccc(S(=O)(=O)Nc3ccccc3)cc2)C1 (stereo not drawn)
2. NS(=O)(=O)c1ccc(N2CCCC(NC(=O)CCc3ccccc3)C2)cc1 (stereo not drawn)
Which has the higher remaining activity at 5 µM, 1 or 2 ? Identify your selection by its label.
1

A. O=C(NCCc1ccccc1)C1CCCN(S(=O)(=O)c2ccc(N3CCCC3)cc2)C1 (stereo not drawn)
B. O=C(NCCc1ccccc1)C1CCN(S(=O)(=O)c2ccc(N3CCCC3)cc2)CC1
Parameter metric = remaining activity at 5 µM. Return the lower-valued option from A and B . Refer to your chosen item by its label in the answer.
B
